- Method summary: RAM signaling pathway blockade in yeast – S. cerevisiae, Pdr1DBD-CYC8 efflux-inhibited sensitized strain, primary screen (AID 1298);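 also: 0% = DMSO untreated cells without growth and 100% = 10 µM 1-NA-PP1 full growth; higher means more yeast growth rescued from 5-FOA killing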
- Condition summary: S. cerevisiae cbk1-as DSE1-URA3 strain, 5-FOA growth OD615, 2 d; at 50 µM; hits give high values
Metric: RAM network inhibition (%)
Answers are plain numbers, in %.

Some solved cases for reference:
- Compound: "O=C1CCCc2sccc2N1"
  Observed measurement: 2.15
- Compound: "COc1cccc(-c2nc(CS(=O)(=O)CC(=O)NCc3ccccc3OC)c(C)o2)c1"
  Observed measurement: 3.2
- Compound: "COc1ccc(N(C)S(=O)(=O)c2cccc(C(=O)NC3=NCCS3)c2)cc1"
  Observed measurement: 2.28
- Compound: "CN(C)c1nc2c(c(=O)[nH]c(=O)n2C)n1Cc1ccc(F)cc1"
  Observed measurement: 2.1
- Compound: "CCOC(=O)c1cc2c(=O)n3ccccc3nc2n(CCOC)c1=NC(=O)C(C)(C)C"
  Observed measurement: 5.12

Now, please, on to the next compound.
input: I'd like to know its RAM network inhibition. The compound in question is Cc1nc2ccccn2c1/C(O)=C1\C(=O)C(=O)N(CCCN(C)C)C1c1ccc(Cl)cc1 (stereo unspecified)
output: -1.78

====

- Method summary: RAM signaling pathway blockade in yeast – S. cerevisiae, Pdr1DBD-CYC8 efflux-inhibited sensitized strain, primary screen (AID 1298);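 also: 0% = DMSO untreated cells without growth and 100% = 10 µM 1-NA-PP1 full growth; higher means more yeast growth rescued from 5-FOA killing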
- Condition summary: S. cerevisiae cbk1-as DSE1-URA3 strain, 5-FOA growth OD615, 2 d; at 50 µM; hits give high values
Would you mind telling me the reported RAM network inhibition of each entry?
One number for each entry, in %.

- Compound: "Cc1noc(NS(=O)(=O)c2ccc(NC(=O)CSc3nc4c(cc3C#N)CCC4)cc2)c1C"
  Metric: "RAM network inhibition"
  Observed measurement: 8.22
- Compound: "CC(C)N1CCc2c(sc(NC(=O)c3ccc(S(=O)(=O)N4CCOCC4)cc3)c2C#N)C1"
  Metric: "RAM network inhibition"
  Observed measurement: 1.3
- Compound: "CCCCCSc1nc2c(c(=O)[nH]c(=O)n2C)n1CC"
  Metric: "RAM network inhibition"
  Observed measurement: -1.69

Would you be so kind as to report RAM network inhibition for each listed record?
1. COCCn1c(=NC(=O)CSC(C)=O)sc2cc(OC)ccc21
2. Cc1cc(C)c2c(=O)[nH]n(C3CCOC(C)(C)C3)c2n1 (stereo unspecified)

output:
1: 0.96; 2: 1.49

====

- Method summary: growth suppression of beta-catenin knockout HCT116, pilot screen, human colon tumor cells (AID 823);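 also: 0% = wells killed by 20 µM Hyamine and 100% = untreated DMSO cell wells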
- Condition summary: CellTiter-Glo, 60 h, at 10 µM
Results filed as inconclusive are left out. Active and inactive are the calls of the source.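 How the source made its calls: active means cell viability at or below a set limit in both duplicate runs, the limit being the all-compound median minus 4 SD (cut at about 23% in these data, passing the limit was not always enough); inconclusive means no clear call, values can overlap the other calls; inactive means the rest.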
Returns: one label drawn from active, inactive

Solved entries:
- Compound: "Cc1ccccc1-n1c(Cn2c(=O)sc3ccccc32)nnc1SCC(=O)NCC1CCCO1 (stereo not given)"
  Assigned label: "inactive"
- Compound: "O=C(c1ccco1)c1cn[nH]c1-c1ccc(Cl)cc1O"
  Assigned label: "inactive"
- Compound: "CCn1nnnc1-c1ccc(OC)c(S(=O)(=O)NCCc2ccccc2)c1"
  Assigned label: "inactive"
- Compound: "Cc1cc(C(=O)CN2CC(C)OC(C)C2)c(C)n1-c1ccccc1 (stereo not given)"
  Assigned label: "inactive"
- Compound: "COc1ccc(OC)c(NC(=O)c2nnn(CCc3ccccc3)c2N)c1"
  Assigned label: "inactive"

input: Answer briefly: the call reported for Cc1cc(NC(=O)CSc2c(C)[nH]c3ccccc23)no1 in this assay.
output: inactive

input: Answer briefly: the call reported for CS(=O)(=O)n1nc(C(=O)N2CCOCC2)nc1N in this assay.
output: inactive

input: Answer briefly: the call reported for COc1cc(CN2CCN(c3cccc(C)c3C)CC2)cc(Br)c1O in this assay.
output: inactive

input: Answer briefly: the call reported for Cc1ccc(CCN2CC(C(=O)NCCCN3CCN(C)CC3)CC2=O)cc1 (stereo not given) in this assay.
output: inactive

input: Answer briefly: the call reported for CCOc1ccccc1NC(=O)CSc1nc2c(c(=O)n1C)SC(C)C2 (stereo not given) in this assay.
output: inactive

input: Answer briefly: the call reported for C=C(C)Cn1c(C2CC(=O)N(Cc3ccccc3)C2)nc2ccccc21 (stereo not given) in this assay.
output: inactive

input: Answer briefly: the call reported for Cc1nc2sc(C(c3cccs3)N3CCN(Cc4ccccc4)CC3)c(O)n2n1 (stereo not given) in this assay.
output: inactive

input: Answer briefly: the call reported for O=C(Nc1ccc(F)cc1)C1CCCN(S(=O)(=O)c2cccc3cccnc23)C1 (stereo not given) in this assay.
output: inactive
